test: Particle size distribution (laser particle size analyser, Ph. Eur. 2.9.31); assay type: physicochemical; conditions: specification D50 <150 mic
endpoint label: Particle Size, compliance with specification D50 <150 mic

// worked examples, Particle Size, compliance with specification D50 <150 mic included
molecule	result
NCCS.O=C(O)C(O)C(O)C(=O)O (stereo not drawn) [Example C1, Cysteamine Bitartrate]	~65%
NCCS.O=C(O)C(O)C(O)C(=O)O (stereo not drawn) [Example R1, Cysteamine Bitartrate]	(100%)
NCCS.O=C(O)C(O)C(O)C(=O)O (stereo not drawn) [Example C3, Cysteamine Bitartrate]	~53%
NCCS.O=C(O)C(O)C(O)C(=O)O (stereo not drawn) [Example R3, Cysteamine Bitartrate]	(100%)

// Particle Size, compliance with specification D50 <150 mic lookup, molecule = NCCS.O=C(O)C(O)C(O)C(=O)O (stereo not drawn) [Example R2, Cysteamine Bitartrate] , result: (100%)

// Particle Size, compliance with specification D50 <150 mic lookup, molecule = NCCS.O=C(O)C(O)C(O)C(=O)O (stereo not drawn) [Example C2, Cysteamine Bitartrate] , result: ~55%

Values compiled from patent US20230202975A1.
